Cond: in acetone, 288.15 K
Recorded metric: solubility (mole fraction)
Keep the answer to the number alone.

Reported solubility (mole fraction), compound COc1ccc(C(=O)O)cc1 : ____
0.0153

---

Cond: in n-butyl acetate, 298.15 K
Recorded metric: solubility (mole fraction)
The reply should be a number, written without any unit.

What value of solubility (mole fraction) has been reported for the following compound? COc1ccc(C(=O)O)cc1
0.0106

---

Cond: in n-butyl acetate, 283.15 K
Recorded metric: solubility (mole fraction)
Respond numerically, and do not add a unit to the figure.

GET /values?readout=solubility (mole fraction)&item= COc1ccc(C(=O)O)cc1
0.00629

---

Cond: in acetone, 313.15 K
Recorded metric: solubility (mole fraction)
Give your answer as a number; write no unit.

Form field: reported solubility (mole fraction) of COc1ccc(C(=O)O)cc1
0.0298
